- Test system: Zika virus NS2B-NS3 protease (linked construct)
- PROTOCOL: Primary screen NINDS Rhodamine qHTS for Zika virus inhibitors (AID 1347160); further: nearly all actives have a fitted effect of over 55% in size; further: potency means the concentration at half of the fitted maximal effect
- RUN_PARAMETERS: purified NS2B-NS3 protease, Rhodamine110 substrate fluorescence; series mostly up to 57.1 µM
Records with an inconclusive call do not appear. Activity calls are given as the source filed them. The call rests on the fitted dose curve; in most records, active means well fitted inhibition curve with a large enough effect; inconclusive means small, poorly fitted or top-dose-only effect; inactive means no such curve, though single readings can be large or run the other way.
READOUT_LABEL: Potency

1. C=C1C(=O)O[C@@H]2[C@H]1[C@H](O)C[C@]1(C)[C@@H](O)CC=C(C)[C@@H]21    inactive
2. O=C(O)CC1OC(=O)c2c(O)cccc21 (stereo unspecified)    inactive
3. CCCCc1nc(C)c(CC(=S)N(C)C)c(=O)n1Cc1ccc(-c2ccccc2-c2nn[nH]n2)cc1    inactive
4. COc1cccc(CNC(=O)Nc2nc(-c3ccncc3)cs2)c1    inactive
5. O=C(CC1NCCC[C@H]1O)Cn1cnc2cc(Br)c(Cl)cc2c1=O (stereo partly specified)    inactive
6. CNc1cc(OC)c(C(=O)N[C@@H]2CCN(Cc3ccccc3)[C@@H]2C)cc1Cl    inactive
7. COc1ccc2cc(NC(=O)C3=NO[C@H]4[C@H](O)C=C[C@@H](Cl)[C@@]4(O)C3)c(=O)oc2c1OC    49.3 µM (active)
8. C[C@]12CC[C@]3(C1)[C@H](CC2=O)CC(OC(=O)c1ccccc1)[C@H]1[C@@](CO)(C(=O)O)CCC[C@@]13C (stereo partly specified)    49.3 µM (active)
9. O=C(O)[C@@]12COC3(O)C1CCN1CC[C@H]3[C@@H]1c1c2[nH]c2ccccc12    inactive
10. CC12C[C@]3(O)O[C@@H](O1)[C@]1(COC(=O)c4ccccc4)[C@@H]3CC21OC1OC(CO)C(O)C(O)C1O (stereo partly specified)    inactive
11. C[C@@H]1C[C@H]2C[C@]3(CCCCN3C)[C@@H]3C[C@H]2[C@H](C1)N(C)C3    inactive
12. CCC[C@@H](C)/C=C(\C)[C@H](O)[C@H](C)/C=C/CC[C@@H](O)[C@H](C)[C@H](O)[C@H](C)[C@H](O)[C@H](C)[C@H]1O[C@H]([C@H](C)C(=O)O)CC[C@@H]1C    6.21 µM (active)
13. Nc1nc(NCC2CCC(CNS(=O)(=O)c3cccc4ccccc34)CC2)nc2ccccc12 (stereo unspecified)    inactive
14. CO[C@@H]1[C@H](O)[C@@H](C)O[C@@H](OC[C@@H]2C(C)OC(=O)/C=C/[C@H](C)C(O[C@@H]3O[C@H](C)CC4(OC(=O)O[C@@H]4C)C3O)[C@@H](C)CC(C)C(=O)CC[C@H]3OC23)[C@@H]1OC (stereo partly specified)    49.3 µM (active)
15. N#Cc1cccc(C#N)c1-c1nc2c3ccccc3c3cc(Cl)ccc3c2[nH]1    inactive
16. CN1CC[C@]2(c3cccc4c3N[C@@H]3N(C)CC[C@]43[C@@]34CCN(C)[C@@H]3Nc3ccccc34)c3ccccc3N[C@H]12    inactive
